test: protein stability index of a GFP-peptide fusion (yeast GPS) (PSI 1-4); higher = more stable; sorted into four equal gates, so the index is relative within each strain; details: san1∆
valueType: protein stability index
Enter a number only.

These solved cases illustrate the format of a correct answer.
> print(dat)
                       recordsequence                valuetype  valuereported
1           EIMQQKFPATNVTTILD [ECM29]  protein stability index           2.19
2  ITTFVKRSTVPLNDGFV [YML103C/NUP188]  protein stability index           1.91
3  TYEAIEITDAYCFAKND [YMR129W/POM152]  protein stability index            2.7
4            EAIRDPKNSSSPVQIAF [SSN8]  protein stability index           1.92
5          SMKDRAQHAVILDQEKY [RPS25A]  protein stability index           2.42
6            QPTNFTTKRLWSEITES [MCD1]  protein stability index           2.04

Any idea what its protein stability index is? The sequence is EKWISSKNSKLSIICVG [SIR3]
1.37

Which protein stability index reading was recorded for the sequence AGNKVGQSEASLLNLLN [RPP0] ?
2.67

###

test: protein stability index of a GFP-peptide fusion (yeast GPS) (PSI 1-4); higher = more stable; sorted into four equal gates, so the index is relative within each strain; conditions: san1∆
valueType: protein stability index

Worked examples follow.
> print(dat)
               recordsequence  valuereported
1    DFPHLTPKLQTQLSYLI [YCS4]           2.79
2    VDDAIELALKTLSKTTD [PRE9]           2.42
3    ETHPDNSNKQAVAILAD [BRR2]           2.81
4  KYDRILKEVPTYRYVSV [RPS25A]           2.87
5   KLNTFNLQTFTHEQWSN [SRP72]           2.36

I would be grateful if you could share the reported protein stability index for ELKYQRSLRATAEERVG [RPL15A] .
1.67

Query: protein stability index; subject: LAVIMDNIGEIDESLFN [YCG1]
3.13

// lookup protein stability index for AIIRLHPSIYTQVFNIL [POP1]
1.2

###

assay: protein stability index of a GFP-peptide fusion (yeast GPS) (PSI 1-4); higher = more stable; sorted into four equal gates, so the index is relative within each strain; settings: doa10∆
Returns rule met if the recorded protein stability index is greater than or equal to 3, and rule not met otherwise.

Here's what some known entries look like.
> print(dat)
             recordsequence           cat
1  TRSWRPPQAGDRSLADD [RPB8]      rule met
2  HGGSRYATKDGVAHLLN [QCR2]      rule met
3  SQTTQLAGMDVEDALDK [FAS2]      rule met
4  FETETEVTFKNANIFSS [FAS1]      rule met
5  VPQGKIVALTNAKDKER [SMC3]  rule not met

Does the reported protein stability index for FQNLELETEQLSSELDS [SMC2] fall at or above the 3 mark?
rule not met

Check the entry LTEGGSILEEKIAVLNN [SMC1] : does protein stability index equal or exceed 3?
rule met

Dear colleague, could you confirm whether QKTVFDELCKLVTCEGS [SRP54] has protein stability index at or above 3?
rule not met
